# target: T1, human PDGF-BB (platelet derived growth factor B homodimer) (human, UniProt P01127)
# T1 construct: Platelet derived growth factor B, human, homodimer, bought from PeproTech; the printed catalogue number may stand for 100-14B; source: bought: PeproTech, Catalog 100-148
# T1 sequence (P01127 82-190): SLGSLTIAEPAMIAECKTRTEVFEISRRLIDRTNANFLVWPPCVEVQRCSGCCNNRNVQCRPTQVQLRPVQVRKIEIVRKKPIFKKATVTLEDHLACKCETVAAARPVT
# method: SPR; Biacore T200, off-rate screen; antibody captured (~70 to 100 RU) by anti-human IgG amine-coupled to a CM5 chip; human PDGF-BB injected at a single 2.5 nM for 170 s, dissociation 300 s; HBS-EP+ N (10 mM HEPES, 500 mM NaCl, 3 mM EDTA, 0.05% Tween20, pH 7.4); 25 C
# condition: both partners purified
observation_type: koff
Field: value (include unit after the number)

Record R2-017 (antibody, V domains shown, as the VH of m20 (R2-001_HC) with D101Y; as the VL of m20 (R2-001_LC); only the variable regions are written; source: HEK293, transient, purified from conditioned medium (protein A, TMAE, HIC)) VH: EVQLLQSGGGLVKPGGSLRLSCAASGFTFSSYAMSWVRQAPGKGLEWVSYISDDGSLKYYADSVKGRFTISRDNSKNTLYLQMNSLRAEDTAVYYCARHPYWYGGQLYLWGQGTLVTVSS VL: SYVLTQPPSVSVAPGKTARITCSGDSLGSYFVHWYQQKPGQSPVLVIYDDSKRPSGIPERFSGSNSGNTATLTISGTQAMDEADYYCSAFTHNSDVFGGGTKLTVL , field koff: 0.000673 s⁻¹

Recorded result, R2-011 (antibody, V domains shown, as the VH of m20 (R2-001_HC) with Q100bK; as the VL of m20 (R2-001_LC); only the variable regions are written; source: HEK293, transient, purified from conditioned medium (protein A, TMAE, HIC)) VH: EVQLLQSGGGLVKPGGSLRLSCAASGFTFSSYAMSWVRQAPGKGLEWVSYISDDGSLKYYADSVKGRFTISRDNSKNTLYLQMNSLRAEDTAVYYCARHPYWYGGKLDLWGQGTLVTVSS VL: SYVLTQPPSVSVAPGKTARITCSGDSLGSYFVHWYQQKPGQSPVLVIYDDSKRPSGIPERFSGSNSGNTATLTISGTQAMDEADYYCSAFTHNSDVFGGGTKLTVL , koff: 0.000414 s⁻¹
